Target: Peroxisome proliferator-activated receptor gamma (Homo sapiens, UniProt P37231)
Sequence (P37231 whole entry, the tested form may be a part): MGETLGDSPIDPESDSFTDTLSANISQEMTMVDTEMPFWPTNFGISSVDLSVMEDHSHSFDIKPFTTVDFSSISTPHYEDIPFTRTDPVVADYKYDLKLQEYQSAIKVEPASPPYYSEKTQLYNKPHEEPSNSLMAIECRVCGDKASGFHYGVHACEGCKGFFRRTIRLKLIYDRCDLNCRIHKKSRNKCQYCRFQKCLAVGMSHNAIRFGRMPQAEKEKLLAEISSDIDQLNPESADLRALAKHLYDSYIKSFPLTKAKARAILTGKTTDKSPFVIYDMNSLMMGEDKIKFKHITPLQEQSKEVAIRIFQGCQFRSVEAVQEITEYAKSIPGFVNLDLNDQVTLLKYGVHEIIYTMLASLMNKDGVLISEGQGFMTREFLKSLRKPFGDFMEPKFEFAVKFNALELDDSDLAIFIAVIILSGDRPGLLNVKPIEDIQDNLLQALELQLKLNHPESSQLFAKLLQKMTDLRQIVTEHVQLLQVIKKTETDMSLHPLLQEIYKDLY
Assay: Agonist activity at human PPARgamma-LBD expressed in COS7 cells co-transfected with Gal4 by luciferase based transactivation assay
Decision: EC50 beneath 8 µM gives Satisfied; EC50 meeting or exceeding 8 µM gives Not satisfied.

Ask: Problem: For the compound CCCCC(Sc1nc(OCCCCc2ccccc2)cc(OCCCCc2ccccc2)n1)C(=O)O (centres undefined) , is EC50 under 8 µM?
Result: Not satisfied

Ask: Say whether its EC50 is strictly beneath 8 µM. Entry: CCC(Sc1nc(OCCc2ccccc2)cc(OCCc2ccccc2)n1)C(=O)O (centres undefined)
Result: Satisfied

Ask: Just wondering, is EC50 of CCCCC(Sc1nc(OCCc2ccc(OC(F)(F)F)cc2)cc(OCCc2ccc(OC(F)(F)F)cc2)n1)C(=O)O (centres undefined) below 8 µM?
Result: Not satisfied
